All values here come from patent US20180179210A1.

Test system: Splenocytes
experimentNotes: Splenic cell proliferation assay (anti-IgM stimulated)
Assay type: cell-based
testParameters: Splenocyte; CD1 mouse splenocytes, 1 h pre-treatment, 2.5 ug/ml anti-IgM F(ab')2 for 72 h, Cell Titer-Glo; read-out: EC50 (inhibition of splenic cell proliferation)
attributeMeasured: pEC50
Reminder that pEC50 means the negative base-10 logarithm of the concentration expressed in mol/L.

Known pEC50 results, listed for orientation:
[[record]]
compound = "C=C(F)C(=O)N1CCC[C@@H](n2nc(-c3ccc(Oc4cc(F)cc(OCc5cnc(C)nc5)c4)cc3)c3c(N)ncnc32)C1 [Compound 20]"
measured = 8.70

[[record]]
compound = "C=CS(=O)(=O)N1CCC[C@@H](n2nc(-c3ccc(Oc4cc(F)cc(OCc5cnc(C)nc5)c4)cc3)c3c(N)ncnc32)C1 [Compound 21]"
measured = 7.48

[[record]]
compound = "CC#CC(=O)N1CCC[C@@H](n2nc(-c3ccc(Oc4cc(F)cc(OCc5cnc(C)nc5)c4)cc3)c3c(N)ncnc32)C1 [Compound 11]"
measured = 8.82

[[record]]
compound = "Cc1ncc(COc2cc(F)cc(Oc3ccc(-c4nn([C@@H]5CCCN(C(=O)/C=C/CN(C)C)C5)c5ncnc(N)c45)cc3)c2)cn1 [Compound 16]"
measured = 8.39


# input Query: pEC50; subject: CC#CC(=O)N[C@H]1C[C@@H](n2nc(-c3ccc(Oc4cc(F)cc(OCc5cnc(C)nc5)c4)cc3)c3c(N)ncnc32)C1 [Compound 28]
# output 8.96

# input What do you get for Cc1ncc(COc2cc(F)cc(Oc3ccc(-c4nn(C5CCN(C#N)CC5)c5ncnc(N)c45)cc3)c2)cn1 [Compound 33] ?
# output 7.33

# input What do you get for Cc1ncc(COc2cc(F)cc(Oc3ccc(-c4nn(C[C@H]5CCCN5C(=O)/C=C/CN(C)C)c5ncnc(N)c45)cc3)c2)cn1 [Compound 9] ?
# output 8.19

# input What do you get for C/C=C/C(=O)N1CCC[C@@H]1Cn1nc(-c2ccc(Oc3cc(F)cc(OCc4cnc(C)nc4)c3)cc2)c2c(N)ncnc21 [Compound 3] ?
# output 7.89

# input What do you get for Cc1ncc(COc2cc(F)cc(Oc3ccc(-c4nn([C@@H]5CCCN(C#N)C5)c5ncnc(N)c45)cc3)c2)cn1 [Compound 8] ?
# output 8.34

# input What do you get for C=CC(=O)N1CC[C@@H](n2nc(-c3ccc(Oc4cc(F)cc(OCc5cnc(C)nc5)c4)cc3)c3c(N)ncnc32)C1 [Compound 22] ?
# output 8.57

# input What do you get for C=CC(=O)N1CCC(n2nc(-c3ccc(Oc4cc(F)cc(OCc5cnc(C)nc5)c4)cc3)c3c(N)ncnc32)CC1 [Compound 25] ?
# output 8.37
